Data credit: paper PMC10397247

# target_of_assay: T1, 4H342-AA
# T1 chain: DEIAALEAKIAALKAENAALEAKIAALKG
# assay_info: two-hybrid library CCmax;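 further: natural log of median RNA to DNA barcode read ratio; higher means stronger binding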
# condition_set: mean of both orientations
Parameter interaction score: see the listing below.

# binder, interaction score
records = [
    ("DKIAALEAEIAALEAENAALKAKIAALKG [4H2078-AA]", 2.14),
    ("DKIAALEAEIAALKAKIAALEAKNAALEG [4H2151-AA]", -1.26),
    ("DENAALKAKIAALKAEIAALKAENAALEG [4H1867-AA]", -0.881),
    ("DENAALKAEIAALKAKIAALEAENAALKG [4H1636-AA]", -1.29),
    ("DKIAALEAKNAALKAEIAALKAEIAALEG [4H2505-AA]", 1.06),
    ("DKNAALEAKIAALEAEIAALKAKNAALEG [4H3343-AA]", -1.13),
    ("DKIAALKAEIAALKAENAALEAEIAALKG [4H2642-AA]", 1.85),
    ("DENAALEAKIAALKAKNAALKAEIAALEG [4H1401-AA]", 2.15),
    ("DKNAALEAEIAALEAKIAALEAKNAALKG [4H3112-AA]", -0.739),
    ("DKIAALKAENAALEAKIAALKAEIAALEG [4H2729-AA]", 2.18),
    ("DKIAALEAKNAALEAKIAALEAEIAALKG [4H2466-AA]", -0.478),
    ("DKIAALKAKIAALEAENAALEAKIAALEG [4H2837-AA]", 2.11),
    ("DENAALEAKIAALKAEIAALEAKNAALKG [4H1352-AA]", 1.49),
    ("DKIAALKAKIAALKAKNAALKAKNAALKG [4H2944-AA]", 1.12),
    ("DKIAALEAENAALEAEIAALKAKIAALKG [4H2190-AA]", 0.437),
    ("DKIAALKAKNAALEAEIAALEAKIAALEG [4H2949-AA]", 0.399),
    ("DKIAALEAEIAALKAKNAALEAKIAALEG [4H2165-AA]", 1.73),
    ("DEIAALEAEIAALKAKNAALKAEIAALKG [4H122-AA]", 1.76),
    ("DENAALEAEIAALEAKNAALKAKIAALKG [4H1086-AA]", 1.88),
    ("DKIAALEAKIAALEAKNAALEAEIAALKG [4H2354-AA]", 1.11),
    ("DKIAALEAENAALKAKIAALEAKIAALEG [4H2277-AA]", -0.907),
    ("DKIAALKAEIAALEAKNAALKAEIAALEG [4H2617-AA]", 2.32),
    ("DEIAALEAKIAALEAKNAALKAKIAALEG [4H317-AA]", 2.15),
    ("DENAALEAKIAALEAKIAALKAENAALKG [4H1324-AA]", -1.05),
    ("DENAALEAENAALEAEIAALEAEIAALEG [4H1153-AA]", -1.39),
]
